Biological target: T1, human VEGF (hVEGF) (human, UniProt P15692 181-395)
T1 construct: also called VEGF-A
T1 sequence: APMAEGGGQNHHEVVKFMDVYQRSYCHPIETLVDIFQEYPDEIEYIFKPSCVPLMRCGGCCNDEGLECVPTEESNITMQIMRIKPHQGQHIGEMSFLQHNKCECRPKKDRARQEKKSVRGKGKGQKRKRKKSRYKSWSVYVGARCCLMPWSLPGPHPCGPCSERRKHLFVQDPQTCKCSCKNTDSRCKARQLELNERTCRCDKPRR
Test: SPR single-cycle;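 further: fab variants injected over hVEGF immobilized on a CM5 chip (Biacore T200), threefold dilution series from 0.02 to 50 nM, kinetics fitted with a 1:1 Langmuir model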
Attribute: Kd
measuredEndpoint: Kd (pM)

binder: G6.31 LC-S77E (Fab, V domains shown, Fab) VH: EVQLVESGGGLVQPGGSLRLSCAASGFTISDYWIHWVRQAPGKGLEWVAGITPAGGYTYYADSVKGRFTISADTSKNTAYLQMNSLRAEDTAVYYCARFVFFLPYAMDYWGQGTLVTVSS VL: DIQMTQSPSSLSASVGDRVTITCRASQDVSTAVAWYQQKPGKAPKLLIYSASFLYSGVPSRFSGSGSGTDFTLTISELQPEDFATYYCQQGYGNPFTFGQGTKVEIK
uom: pM
obsValue: 562

binder: G6.31 HC-S82bE (Fab, name in Kabat numbering, V domains shown, Fab) VH: EVQLVESGGGLVQPGGSLRLSCAASGFTISDYWIHWVRQAPGKGLEWVAGITPAGGYTYYADSVKGRFTISADTSKNTAYLQMNELRAEDTAVYYCARFVFFLPYAMDYWGQGTLVTVSS VL: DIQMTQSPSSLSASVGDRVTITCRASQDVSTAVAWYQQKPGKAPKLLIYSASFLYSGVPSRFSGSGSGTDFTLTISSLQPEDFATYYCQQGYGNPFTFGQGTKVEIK
uom: pM
obsValue: 991

binder: G6.31 HC-A40E (Fab, name in Kabat numbering, V domains shown, Fab) VH: EVQLVESGGGLVQPGGSLRLSCAASGFTISDYWIHWVRQEPGKGLEWVAGITPAGGYTYYADSVKGRFTISADTSKNTAYLQMNSLRAEDTAVYYCARFVFFLPYAMDYWGQGTLVTVSS VL: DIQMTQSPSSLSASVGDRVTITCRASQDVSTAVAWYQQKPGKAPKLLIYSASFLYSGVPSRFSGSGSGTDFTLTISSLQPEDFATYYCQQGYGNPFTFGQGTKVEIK
uom: pM
obsValue: 2630
